Let's go through some IC50 measurements on 11-beta-hydroxysteroid dehydrogenase 1 (Homo sapiens, UniProt P28845) together.
Sequence (P28845 whole entry): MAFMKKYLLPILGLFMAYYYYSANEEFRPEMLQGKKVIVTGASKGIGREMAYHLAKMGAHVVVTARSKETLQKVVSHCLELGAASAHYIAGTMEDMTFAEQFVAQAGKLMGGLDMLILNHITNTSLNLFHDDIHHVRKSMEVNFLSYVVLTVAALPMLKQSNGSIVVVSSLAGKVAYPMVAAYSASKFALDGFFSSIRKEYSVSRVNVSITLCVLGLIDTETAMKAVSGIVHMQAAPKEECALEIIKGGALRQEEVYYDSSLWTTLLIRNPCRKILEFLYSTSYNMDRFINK
Observed Property: IC50 (nM)

(I) CCCCCC12CCC(c3nnc4n3CCCCCC4)(CC1)CC2
(II) CCCCCC12CCC(c3nnc(-c4ccccc4C(F)(F)F)n3C)(CC1)CC2
In terms of reported IC50, does I or II have the smaller number? When you have decided, please share the label of that item.
II
(II: 2 nM, I: 5 nM)

====

Assay: Half life in mouse
Format: ADME, organism-based
Details: in vivo
Observed Property: half-life (h)
Express the result in h but write the number alone.

Recall and state the measured half-life for `Cn1c(-c2ccccc2C(F)(F)F)nnc1C12CCC(c3nc(-c4ccc(F)cc4)no3)(CC1)CC2` .
17.7
